In this section we review reported pIC50 values for a set of molecules.
molecular target: Non-receptor tyrosine-protein kinase TYK2 (Homo sapiens); format: cell-based, Sf9
Sequence (P29597 whole entry): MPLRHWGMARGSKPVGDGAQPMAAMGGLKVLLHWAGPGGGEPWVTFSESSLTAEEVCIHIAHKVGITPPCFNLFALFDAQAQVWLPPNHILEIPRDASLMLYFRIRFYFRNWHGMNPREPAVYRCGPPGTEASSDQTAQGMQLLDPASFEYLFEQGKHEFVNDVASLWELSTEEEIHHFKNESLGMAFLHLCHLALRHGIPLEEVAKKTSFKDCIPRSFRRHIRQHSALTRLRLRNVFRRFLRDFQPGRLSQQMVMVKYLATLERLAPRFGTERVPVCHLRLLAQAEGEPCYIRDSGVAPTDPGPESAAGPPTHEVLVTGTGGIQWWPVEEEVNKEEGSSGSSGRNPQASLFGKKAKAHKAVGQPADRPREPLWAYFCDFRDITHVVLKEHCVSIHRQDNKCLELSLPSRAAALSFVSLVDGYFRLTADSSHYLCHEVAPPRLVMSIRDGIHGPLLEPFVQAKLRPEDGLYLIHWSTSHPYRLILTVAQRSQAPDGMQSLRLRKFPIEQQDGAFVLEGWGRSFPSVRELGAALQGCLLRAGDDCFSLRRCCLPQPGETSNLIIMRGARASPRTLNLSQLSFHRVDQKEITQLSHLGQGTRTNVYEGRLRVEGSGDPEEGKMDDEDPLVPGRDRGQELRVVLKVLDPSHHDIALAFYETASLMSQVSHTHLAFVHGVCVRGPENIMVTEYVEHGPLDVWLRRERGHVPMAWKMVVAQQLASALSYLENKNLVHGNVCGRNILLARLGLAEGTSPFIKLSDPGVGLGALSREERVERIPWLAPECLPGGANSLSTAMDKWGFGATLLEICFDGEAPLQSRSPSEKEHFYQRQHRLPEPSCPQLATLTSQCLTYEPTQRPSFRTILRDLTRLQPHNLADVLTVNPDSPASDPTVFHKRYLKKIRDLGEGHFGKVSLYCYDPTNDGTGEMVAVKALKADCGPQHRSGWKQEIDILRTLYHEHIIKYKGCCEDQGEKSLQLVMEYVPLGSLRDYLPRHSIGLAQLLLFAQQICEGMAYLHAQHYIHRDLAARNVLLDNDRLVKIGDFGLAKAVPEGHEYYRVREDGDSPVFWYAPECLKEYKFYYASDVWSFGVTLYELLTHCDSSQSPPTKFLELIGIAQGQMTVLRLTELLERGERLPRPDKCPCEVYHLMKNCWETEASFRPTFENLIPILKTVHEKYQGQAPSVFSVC
# pIC50 = -log10(concentration in molar units)

Before answering, review these 6 worked examples.
>  <cpd.smiles>
CNC(=O)c1cnc(N)c2cc(-c3ccc(C(C)(C)C)cc3)sc12

>  <subject.of.test>
Non-receptor tyrosine-protein kinase TYK2 (Homo sapiens)

>  <numeric.value>
6.69

$$$$
>  <cpd.smiles>
CNC(=O)c1cnc(N)c2cc(-c3ccc(OC(F)(F)F)cc3)sc12

>  <subject.of.test>
Non-receptor tyrosine-protein kinase TYK2 (Homo sapiens)

>  <numeric.value>
6.68

$$$$
>  <cpd.smiles>
CC(C)(C)NS(=O)(=O)c1ccc(-c2cc3c(N)ncc(C(=O)NCCN4CCCCC4)c3s2)cc1

>  <subject.of.test>
Non-receptor tyrosine-protein kinase TYK2 (Homo sapiens)

>  <numeric.value>
5.57

$$$$
>  <cpd.smiles>
NC(=O)c1cnc(N)c2cc(-c3ccc(N4CCOCC4)cc3)sc12

>  <subject.of.test>
Non-receptor tyrosine-protein kinase TYK2 (Homo sapiens)

>  <numeric.value>
7.18

$$$$
>  <cpd.smiles>
CNC(=O)c1cnc(N)c2cc(-c3ccccc3)sc12

>  <subject.of.test>
Non-receptor tyrosine-protein kinase TYK2 (Homo sapiens)

>  <numeric.value>
6.03

$$$$
>  <cpd.smiles>
CC(C)(C)NS(=O)(=O)c1ccc(-c2cc3c(N)ncc(C(=O)NCCO)c3s2)cc1

>  <subject.of.test>
Non-receptor tyrosine-protein kinase TYK2 (Homo sapiens)

>  <numeric.value>
6.03

$$$$

Item under review: CNC(=O)c1cnc(N)c2cc(-c3ccc(C)cc3)sc12 . Reported pIC50? 6.05

Item under review: CC(C)(C)NS(=O)(=O)c1ccc(-c2cc3c(N)ncc(C(=O)NCCN4CCOCC4)c3s2)cc1 . Reported pIC50? 6.12

Item under review: CN(C)C(=O)c1cnc(N)c2cc(-c3ccc(N4CCOCC4)cc3)sc12 . Reported pIC50? 5.29
